Molecular target: T1, biotin-labeled human CD137 fused to human IgG1 Fc fragment (human, biotin-labeled)
T1 construct: also called human CD137-Fc; biotin-human CD137-Fc; not shown: human IgG1 Fc fragment
Test: competitive ELISA on biotin-human CD137-Fc; free Fc 62.5 pmol (control)
List of ELISA signal values.
Simply state the number, no unit and no words.

Some entries whose results are on file:
QUERY: Query (binder): dBBDu186/L106 (antibody, V domains shown, IgG format; constant regions not specified) VH: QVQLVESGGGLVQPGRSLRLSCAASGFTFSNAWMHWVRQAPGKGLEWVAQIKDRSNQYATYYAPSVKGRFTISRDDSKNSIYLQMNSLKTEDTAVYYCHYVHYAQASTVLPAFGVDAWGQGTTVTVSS VL: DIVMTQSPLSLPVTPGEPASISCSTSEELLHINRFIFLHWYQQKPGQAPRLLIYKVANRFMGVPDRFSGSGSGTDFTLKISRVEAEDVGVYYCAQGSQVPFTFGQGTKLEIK ; field requested: ELISA signal
RESULT: 9860

QUERY: So what does the record say about ELISA signal for dBBDu193/L132 (antibody, V domains shown, IgG format; constant regions not specified; also called dBBDu_193 dBBDu.L132) VH: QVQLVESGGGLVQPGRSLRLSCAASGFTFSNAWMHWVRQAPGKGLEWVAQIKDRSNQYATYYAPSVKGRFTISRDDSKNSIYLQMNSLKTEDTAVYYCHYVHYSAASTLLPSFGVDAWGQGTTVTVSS VL: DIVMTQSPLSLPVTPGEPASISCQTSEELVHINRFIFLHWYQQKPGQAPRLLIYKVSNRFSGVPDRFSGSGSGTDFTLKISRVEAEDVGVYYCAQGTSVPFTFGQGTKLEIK ?
RESULT: 116000

// below: ELISA signal requested for another binder
QUERY: Suppose we examine the binder dBBDu186/L100 (antibody, V domains shown, IgG format; constant regions not specified) VH: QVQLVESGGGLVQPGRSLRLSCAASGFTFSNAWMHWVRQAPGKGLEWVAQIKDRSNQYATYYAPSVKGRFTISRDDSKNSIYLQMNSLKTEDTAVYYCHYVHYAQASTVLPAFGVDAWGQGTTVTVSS VL: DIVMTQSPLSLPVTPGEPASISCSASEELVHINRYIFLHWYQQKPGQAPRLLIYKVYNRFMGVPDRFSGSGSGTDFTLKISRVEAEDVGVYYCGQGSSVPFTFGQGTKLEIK ; what ELISA signal value has been reported?
RESULT: 102000
